Data origin, for the record: paper PMC5540273

Test system: MST1R
PARTICULARS: concentration: 1 μM, replicates: in singlicate; n = 1;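 further: KINOMEscan kinase panel screen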
%Inh overview
Answer format: numeric, % implied, no suffix.

compound_structure=Cc1ccc(F)c(C(=O)Nc2cccc(-c3nn4ccccc4c3-c3ccnc(Nc4cccc(F)c4)n3)c2)c1F target_or_system=MST1R unit_abbreviation=% numeric_readout=34
compound_structure=C[C@@H]1CC[C@@H](C(=O)Nc2ccccc2)CN1c1cc(-c2ccc3c(N)n[nH]c3c2)nc(N)n1 target_or_system=MST1R unit_abbreviation=% numeric_readout=26
compound_structure=COc1cc(Nc2ncc3c(C)nc(-c4cc5ccccc5[nH]4)n3n2)cc(OC)c1OC target_or_system=MST1R unit_abbreviation=% numeric_readout=0

Kindly consider the entry below.
INPUT: Entry COc1cccc(C2=C(Nc3ccc(Cl)c(C(=O)O)c3)C(=O)NC2=O)c1 has what %Inh?
OUTPUT: 100

* * *

Test system: NEK10
PARTICULARS: concentration: 1 μM, replicates: in singlicate; n = 1
Recorded %Inh, one value per entry.
Numeric only. Scale: %

Solved entries (count: 3):
compound=O=C(Nc1cccc(-c2nn3ncccc3c2-c2ccnc(Nc3ccccc3)n2)c1)c1c(F)cccc1F numeric_readout=0
compound=Cn1cc(-c2[nH]c3cc(NC(=O)[C@H](N)C4CCCCC4)cc4c3c2C=NNC4=O)cn1 numeric_readout=54
compound=COc1cccc(-c2ccc3c(NC(=O)C4CC4)n[nH]c3n2)c1 numeric_readout=20

Now turn to the next compound.
INPUT: Return reported %Inh; argument: COc1cc(Nc2nccc(N3CCC(NC(=O)c4cc5ccccc5s4)C3)n2)cc(OC)c1OC (centres unmarked)
OUTPUT: 18

* * *

Tested on: GRK2
Construct: gene ADRBK1
PARTICULARS: concentration: 1 μM, replicates: in singlicate; n = 1
MEASURED PARAMETER: %Inh

Worked examples follow.
molecule="COc1cc(Nc2nccc(N3CCC(NC(=O)c4cc5ccccc5s4)C3)n2)cc(OC)c1OC (stereo not shown) [GSK1379760]" result=0%
molecule="COc1cccc(C2=C(Nc3ccc(Cl)c(C(=O)O)c3)C(=O)NC2=O)c1 [SB-390769]" result=0%
molecule="Nc1ncc(-c2cccnc2)c2scc(-c3ccc4c(c3)CCN4C(=O)Cc3ccccc3)c12 [GSK683281]" result=0%
molecule="CN1CCN(Cc2cccc(-c3ccc4c(Nc5ccc(Oc6ccccc6)cc5)ccnc4c3)c2)CC1 [GW578342]" result=2%
molecule="c1ccc(-c2cnc3nccnn23)cc1 [AH20685]" result=0%
molecule="O=C(O)C(F)(F)F.O=C(O)C(F)(F)F.O=c1[nH]ccc2nc(N[C@@H]3CCCNC3)nc(Nc3ccc(S(=O)(=O)N4CCOCC4)cc3)c12 [GSK2177277]" result=72%

Kindly review the next molecule as well.
INPUT: Which %Inh value is on record for COc1cc(Nc2nccc(-c3c(-c4cccc(NC(=O)c5c(F)cccc5F)c4)nn4ccccc34)n2)cc(OC)c1OC [GSK323521] ?
OUTPUT: 0%

* * *

Tested on: GRK7
PARTICULARS: concentration: 1 μM, replicates: in singlicate; n = 1
We begin with a simple list: items and their reported %Inh.
Write it as a number; the unit % goes unstated.

Worked set:
compound="CN1CCN(CCCNc2nccc(-c3c(-c4ccc(F)cc4)nn4cc(C(F)(F)F)ccc34)n2)CC1 [GW621581]" unit_abbreviation=% numeric_readout=0
compound="CC(=O)N1CCN(c2ccc(Nc3nccc(-c4sc(C(C)C)nc4-c4cccc(NS(=O)(=O)c5cccc(Cl)c5)c4)n3)cn2)CC1 [GSK1660437]" unit_abbreviation=% numeric_readout=0
compound=Cn1cc(-c2[nH]c3cc(NC(=O)[C@H](N)C4CCCCC4)cc4c3c2C=NNC4=O)cn1 unit_abbreviation=% numeric_readout=40
compound="CNC(=O)c1ccccc1Nc1nc(Nc2ccc(N3CCOCC3)cc2)ncc1Cl.Cl [GSK1576028]" unit_abbreviation=% numeric_readout=3
compound=Cc1ccc(C(=O)N2CC[C@@H](O)C2)cc1-n1c(C)cc(OCc2ccc(F)cc2F)c(Br)c1=O unit_abbreviation=% numeric_readout=0
compound="COc1cc(Nc2nccc(N3CCC(NC(=O)Nc4cccc(C(C)=O)c4)C3)n2)cc(OC)c1OC (centres unmarked) [GSK1379753]" unit_abbreviation=% numeric_readout=0

INPUT: For the compound Cl.c1ccc(-c2ccc3c(Nc4ccc5[nH]ccc5c4)ccnc3c2)nc1 [GW440138] , what %Inh is on record?
OUTPUT: 0

INPUT: Sample COc1cccc(-c2ccc3c(NC(=O)C4CC4)n[nH]c3n2)c1 [SB-710903] — what was its %Inh?
OUTPUT: 0

INPUT: # lookup: %Inh of CCCCc1nn2ncccc2c1-c1ccnc(Nc2ccc(N3CCN(C)CC3)cc2)n1 [GW684941]
OUTPUT: 0

INPUT: Item under review: Cc1occc1-c1ncc(OC[C@@H](N)Cc2c[nH]c3ccccc23)cc1-c1ccc2[nH]nc(C)c2c1.O=C(O)C(F)(F)F [GSK682037] . Reported %Inh?
OUTPUT: 43

INPUT: Reported %Inh, compound CN(C)Cc1ccc(-c2ccc3c(Nc4ccc(Oc5ccccn5)cc4)ccnc3c2)o1 [GW567148] : ____
OUTPUT: 10

INPUT: Would you kindly share the measured %Inh for Cl.Cl.NCC(NCc1ccc(-c2ccnc3[nH]ccc23)s1)c1ccccc1 (centres unmarked) [GSK1321565] ?
OUTPUT: 83
